Assay procedure: yeast display, Sf9 membrane polyspecificity reagent, FACS + sequencing; frameworks hold sequencing errors
Quantity measured: polyreactivity (PSR sort gate)

>>> value_observed("QVQLVESGGGLVQAGGSLRLSCAASGRIFDVNAMGWYRQAPGKERELVAAITYSDGSTYYADSVKGRFTISRDNAKNTVYLQMNSLKPEDTAVYYCAATQEPVTPQPYGYWGQGTQVTVSS")
"low polyreactivity"
>>> value_observed("HDQLVESGGGLLQAGGSLRLSCAASGITLYRYVMGWYRQAPGKERELVAYIAGRGTSTYYSDSVKGRFTISRDHAKNTVYLQMNSLKPEDTAVYFCNAEYTKTGALVIPYTYYYAEDYWGQGTQVTVSS")
"low polyreactivity"
